Recorded values, source patent US9931315B2.

Tested on: HT-29 colon cancer cells
METHOD_NOTES: Cell growth inhibition (CellTiter-Glo ATP assay), HT-29 cells with wild-type Ras
Type: cell-based, human
CONDITION_SUMMARY: Homo sapiens, HT-29; growth inhibition, colon cancer cells with wild-type Ras, Table 2; read-out: HT-29 (WT Ras) IC50
OUTCOME_MEASURE: IC50 (µM)

COc1ccc2c(c1)C(CC(=O)Nc1cccnc1)=C(C)/C2=C/c1cc(OC)c(O)c(OC)c1: 0.916
COc1ccc2c(c1)C(CC(=O)NCc1ccco1)=C(C)/C2=C/c1cc(Br)c(O)c(OC)c1: 0.73
COc1cc(/C=C2/C(C)=C(CC(=O)NCc3ccco3)c3cc(F)ccc32)cc(OC)c1O: 0.28

P: COc1ccc2c(c1)C(CC(=O)NCc1cccnc1)=C(C)/C2=C/c1cc(OC)c(O)c(OC)c1
Q: COc1ccc2c(c1)C(CC(=O)NCc1ccco1)=C(C)/C2=C/c1ccc(O)c(OC)c1
R: COc1ccc2c(c1)C(CC(=O)NCc1ccco1)=C(C)/C2=C/c1cc(OC)c(O)c(OC)c1
S: COc1cc2c(cc1OC)/C(=C\c1cc(OC)c(O)c(OC)c1)C(C)=C2CC(=O)NCc1ccco1
T: COc1cc(/C=C2/C(C)=C(CC(=O)NCc3cccnc3)c3cc(F)ccc32)cc(OC)c1O
[in] Ordering criterion: IC50; begin with the maximum. Thanks in advance for listing the labels in the requested order.
[out] R, P, T, S, Q
(R: 8.13 µM, P: 4.83 µM, T: 2.94 µM, S: 1.54 µM, Q: 0.9 µM)

P: COc1cc(/C=C2/C(C)=C(CC(=O)NCc3ccccn3)c3cc(F)ccc32)cc(OC)c1O
Q: COc1ccc2c(c1)C(CC(=O)NCCN(C)C)=C(C)/C2=C/c1cc(OC)c(O)c(OC)c1
[in] Which of the two gives a bigger number for IC50: P or Q ? Selection: enter the item's label.
[out] Q

A: COc1ccc2c(c1)C(CC(=O)NCc1ccco1)=C(C)/C2=C/c1cc(Cl)c(O)c(OC)c1
B: COc1ccc2c(c1)C(CC(=O)NC1CCN(C)C1)=C(C)/C2=C/c1cc(OC)c(O)c(OC)c1 (stereo not shown)
[in] Smaller IC50 value? Options are A and B Selection: enter the item's label.
[out] A
(A: 0.5 µM, B: 7.19 µM)

* * *

System: HT-29 colon cancer cells
METHOD_NOTES: Cell growth inhibition (CellTiter-Glo ATP assay), HT-29 cells with wild-type Ras
Format: cell-based, human
CONDITION_SUMMARY: known Ras pathway inhibitors, 384-well plates, Table 4; read-out: HT-29 IC50
OUTCOME_MEASURE: IC50 (µM)
Your answer is read as µM, so omit the unit and give the number.

IC50 of O=C1Nc2ccc(I)cc2/C1=C/c1cc(Br)c(O)c(Br)c1 [GW5074, reference compound] , assay on HT-29 colon cancer cells, is 19.1
